Source: patent US11230542B2

System: CHO cells
Assay: Protein translation assay (puromycin incorporation in CHO cells, unstressed or Tg-stressed)
Format: cell-based, Chinese hamster
Details: Cricetulus griseus; CHO cells stressed with 300 nM Tg; media alone 100%, Tg alone 0%; read-out: % Recovery of protein expression (100 nM test compound)
Protocol: CHO cells were maintained at 37° C. and 5% CO2 in DMEM supplemented with 10% fetal bovine serum (FBS), 2 mM L-glutamine, 100 U/ml penicillin, and 100 μg/ml streptomycin. […] After the 2 hours treatments, media were replaced by adding 10 μg/ml puromycin (Sigma Aldrich) in complete media for 30 min. […] Lysates were transferred to 1.5 ml tubes and sonicated for 3 minutes and total protein amount were quantified using BCA Protein Assay Kit (Pierce). […]
Field: activity at 0.1 µM. Provide a value for each of the molecules that follow.
Express the reported value numerically, then name its unit.

Lab book: activity at 0.1 µM of O=C(COc1ccc(Cl)c(F)c1)N[C@H]1CC[C@H](NC(=O)c2ccc3cc(Cl)ccc3n2)CC1 [Compound 23] noted as 79.2%

Value of measured activity at 0.1 µM for the entry O=C(COc1ccc(Cl)c(F)c1)N[C@H]1CC[C@H](NC(=O)c2ccc3cc(Cl)ccc3c2)CC1 [Compound 145] : 22.6%

O=C(N[C@H]1CC[C@H](NCCOc2ccc(Cl)c(F)c2)CC1)c1ccc2cc(Cl)ccc2n1 [Compound 31] yielded activity at 0.1 µM of 25%

Kindly note the recorded activity at 0.1 µM for O=C(NC1CCN(CC(O)COc2ccc(Cl)c(F)c2)CC1)C1Cc2cc(Cl)ccc2O1 (stereo not shown) [Compound 20] , which is 38.6%
